Biological target: CCNE1 (Homo sapiens, UniProt P24864+P24941)
Construct: host or cells: HEK293
Experiment: CCNE1 HIBIT PQ (protein quantification), degradation
Assay type: cell-based
Details: Max = Maximum
PROPERTY LABEL: CCNE1 HIBIT PQ Max (%)

COMPOUND	CCNE1 HIBIT PQ Max (%)
CC(C)Oc1c(-c2cn[nH]c2)ncn2nc(Nc3ccc(S(=O)(=O)N(C)CCCN4CCN(c5ccc6c(c5)n(C)c(=O)n6C5CCC(=O)NC5=O)C[C@@H]4C(C)C)cc3F)nc12 (some centres unmarked) [Compound 64]	65
CC(C)Oc1c(-c2cn[nH]c2)ncn2nc(Nc3ccc(S(=O)(=O)c4cccc(CN5C6CC5CN(c5ccc7c(N8CCC(=O)NC8=O)nn(C)c7c5)C6)c4)cc3F)nc12 [Compound 45]	33
CC(C)Oc1c(-c2cn[nH]c2)ncn2nc(Nc3ccc(S(=O)(=O)c4cccc(CN5CCC(c6cccc7c6n(C)c(=O)n7C6CCC(=O)NC6=O)CC5)c4)cc3F)nc12 (racemic) [Compound 13]	44
CC(C)Oc1c(-c2cn[nH]c2)ncn2nc(Nc3ccc(S(=O)(=O)N4CCC[C@H](CN5CC[C@@H](c6ccc7c(N8CCC(=O)NC8=O)nn(C)c7c6)CC5(C)C)C4)cc3F)nc12 (single isomer, unassigned) [Compound 102]	76
CC(C)Oc1c(-c2cn[nH]c2)ncn2nc(Nc3ccc(S(=O)(=O)N4CCCC(CN5CCC(c6ccc7c(N8CCC(=O)NC8=O)nn(C)c7c6)CC5(C)C)C4)cc3F)nc12 (centres unmarked) [Compound 93]	56

---

Biological target: CCNE1 (Homo sapiens, UniProt P24864+P24941)
Construct: host or cells: HEK293
Assay: CCNE1 HIBIT PQ (protein quantification), degradation
Type: cell-based
Settings: PQ = Protein Quantification
PROPERTY LABEL: DC50 (nM)

MOLECULE	MEASURED
CC(C)Oc1c(-c2cn[nH]c2)ncn2nc(Nc3cc(F)c(S(=O)(=O)N(C)CCCN4CCC(c5ccc6c(c5)n(C)c(=O)n6C5CCC(=O)NC5=O)CC4)cc3F)nc12 (racemic) [Compound 60]	0.45
CC(C)Oc1c(-c2cn[nH]c2)ncn2nc(NC3CCN(S(=O)(=O)N(C)CCCN4CCC(c5cccc6c5n(C)c(=O)n6C5CCC(=O)NC5=O)CC4)CC3)nc12 (racemic) [Compound 19]	0.77
CC(C)Oc1c(-c2cn[nH]c2)ncn2nc(Nc3ccc(S(=O)(=O)c4cccc(CN5CCN(c6ccc7c(N8CCC(=O)NC8=O)nn(C)c7c6)CC5)c4)cc3F)nc12 [Compound 38]	5.76

a. CC(C)Oc1c(-c2cn[nH]c2)ncn2nc(Nc3ccc(S(=O)(=O)c4cccc(CC5CC(c6ccc7c(c6)CN(C6CCC(=O)NC6=O)C7=O)C5)c4)cc3F)nc12 (stereo not shown) [Compound 77]
b. CC(C)Oc1c(-c2cn[nH]c2)ncn2nc(Nc3c(F)cc(S(=O)(=O)N(C)CCCN4CCC(c5ccc6c(c5)n(C)c(=O)n6C5CCC(=O)NC5=O)CC4)cc3F)nc12 (racemic) [Compound 58]
Problem: Kindly identify the item with the lower DC50 figure among these two: a and b To answer, give the label that identifies your chosen option.
Solution: b

1. CC(C)Oc1c(-c2cn[nH]c2)ncn2nc(Nc3ccc(S(=O)(=O)N4CCCC(CN5CCC(c6ccc7c(N8CCC(=O)NC8=O)nn(C)c7c6)C(C)C5)C4)cc3F)nc12 (stereo not shown) [Compound 92]
2. CC(C)Oc1c(-c2cn[nH]c2)ncn2nc(N[C@H]3CCN(S(=O)(=O)c4cccc(CN5CCN(c6ccc7c(N8CCC(=O)NC8=O)nn(C)c7c6)CC5)c4)C[C@H]3C)nc12 [Compound 40]
3. CC(C)Oc1c(-c2cn[nH]c2)ncn2nc(Nc3ccc(S(=O)(=O)c4cccc(C[C@H]5C[C@@H](c6ccc7c(c6)CN([C@H]6CCC(=O)NC6=O)C7=O)C5)c4)cc3F)nc12 (stereo in doubt) [Compound 81]
4. CC(C)Oc1c(-c2cn[nH]c2)ncn2nc(Nc3ccc(S(=O)(=O)N4CCC[C@@H](CN5CC[C@H](c6ccc7c(N8CCC(=O)NC8=O)nn(C)c7c6)CC5(C)C)C4)cc3F)nc12 (single isomer, unassigned) [Compound 103]
5. CC(C)Oc1c(-c2cn[nH]c2)ncn2nc(Nc3ccc(S(=O)(=O)N(C)CCCN4CCN(c5ccc6c(c5)n(C)c(=O)n6C5CCC(=O)NC5=O)CC4(C)C)cc3F)nc12 (racemic) [Compound 67]
Problem: Task for the reader: rank each entry by its DC50, from the minimum upward. Give me the labels in the order the question wants.
Solution: 5, 4, 1, 2, 3
(5: 1.08 nM, 4: 1.96 nM, 1: 4.11 nM, 2: 8.91 nM, 3: 62.8 nM)
